All figures here come from patent US20260242735A1.

biological target: human CD33 D70A (human, UniProt P20138 18-364); assay: alanine scan, flow cytometry;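 further: HEK293-T cells transiently expressing single-residue alanine mutants of CD33 (alanine swapped to serine), antibody binding read by fluorescence in duplicate, background-subtracted, expressed relative to wild-type CD33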
Sequence (P20138 18-364 D70A limits assumed): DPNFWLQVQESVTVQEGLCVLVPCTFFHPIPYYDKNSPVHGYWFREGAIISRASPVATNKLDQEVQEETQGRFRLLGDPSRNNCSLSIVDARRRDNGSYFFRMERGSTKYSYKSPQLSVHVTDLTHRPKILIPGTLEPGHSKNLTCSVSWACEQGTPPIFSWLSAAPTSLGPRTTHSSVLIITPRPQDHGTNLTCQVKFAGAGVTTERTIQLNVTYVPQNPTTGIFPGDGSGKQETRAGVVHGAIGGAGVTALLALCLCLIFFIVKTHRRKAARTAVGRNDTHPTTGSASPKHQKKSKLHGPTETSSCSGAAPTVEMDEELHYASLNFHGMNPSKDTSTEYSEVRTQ
Hi there, I'd appreciate the recorded Mean % WT Binding for every entry that follows.
# number only, unit % WT dropped from output

Qu. Using known records, supply Mean % WT Binding for Refmab #1 (antibody, V domains shown, Full-length format is human IgG1 (Absolute Antibody Ab00283-10.0); The alanine scan used IgG or Fab; also called hP67.6) VH: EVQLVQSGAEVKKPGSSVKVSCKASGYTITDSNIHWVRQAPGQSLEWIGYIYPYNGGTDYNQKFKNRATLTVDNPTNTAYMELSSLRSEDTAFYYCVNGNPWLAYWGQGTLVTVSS VL: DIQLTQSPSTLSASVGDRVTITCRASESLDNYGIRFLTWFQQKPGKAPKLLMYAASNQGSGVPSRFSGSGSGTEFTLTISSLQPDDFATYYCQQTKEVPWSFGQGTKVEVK
Ans. 81.3

Qu. Using known records, supply Mean % WT Binding for Refmab #2 (antibody, V domains shown, Full-length format is human IgG1 Fc silent (PG-LALA); The alanine scan used IgG or Fab) VH: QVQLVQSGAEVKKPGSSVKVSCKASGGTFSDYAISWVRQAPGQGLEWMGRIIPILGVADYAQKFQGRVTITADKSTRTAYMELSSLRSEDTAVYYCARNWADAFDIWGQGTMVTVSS VL: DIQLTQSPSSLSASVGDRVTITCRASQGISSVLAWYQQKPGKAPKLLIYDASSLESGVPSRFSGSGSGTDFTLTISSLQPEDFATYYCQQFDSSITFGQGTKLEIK
Ans. 110

Qu. Using known records, supply Mean % WT Binding for Refmab #4 (antibody, V domains shown, Full-length format is human IgG1 Fc silent (PG-LALA); The alanine scan used IgG or Fab) VH: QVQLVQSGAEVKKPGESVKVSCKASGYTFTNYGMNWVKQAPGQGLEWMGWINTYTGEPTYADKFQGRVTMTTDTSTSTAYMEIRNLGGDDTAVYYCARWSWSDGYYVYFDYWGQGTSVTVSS VL: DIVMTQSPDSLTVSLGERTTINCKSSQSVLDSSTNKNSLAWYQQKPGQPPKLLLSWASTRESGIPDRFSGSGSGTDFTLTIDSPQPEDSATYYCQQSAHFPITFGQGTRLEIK
Ans. 82.7

Qu. Using known records, supply Mean % WT Binding for Refmab #3 (antibody, V domains shown, Full-length format is human IgG1 Fc silent (PG-LALA); The alanine scan used IgG or Fab) VH: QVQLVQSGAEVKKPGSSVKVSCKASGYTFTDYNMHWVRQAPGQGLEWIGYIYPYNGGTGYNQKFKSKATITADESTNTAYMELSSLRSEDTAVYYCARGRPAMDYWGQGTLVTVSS VL: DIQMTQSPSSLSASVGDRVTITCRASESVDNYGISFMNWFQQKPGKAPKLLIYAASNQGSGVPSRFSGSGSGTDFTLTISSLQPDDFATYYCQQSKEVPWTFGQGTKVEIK
Ans. 131
